self-cleavage reference
B1: Twister Ribozyme (parent)
chain: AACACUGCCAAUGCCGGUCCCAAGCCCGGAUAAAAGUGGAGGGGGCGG

- Variants of: B1
- EXPERIMENT_SUMMARY: self-cleavage, relative activity (ratio to wild type); higher = more cleavage; co-transcriptional
Enter a number only.

Past entries and their recorded results:
1. AACACGGCCAAUGCCGGUCCCAAGCCCGGAUAACAGUGGAGGGGGCGG    0.539
2. AACACUGCCAAUGCCGGUACCAUGCCCGGAUAAAAGUGGAGGGGGCGG    0.114
3. AACACUGCCAAGGCCGGUCCCAAGGCCGGAUAAAAGUGGAGGGGGCGG    0.486
4. CACACUGCCAAUGCCGGUCCCAAGCCCGGAUAAAAGUGGUGGGGGCGG    0.11

The recorded self-cleavage for `AACACUGCCAAUGCCGGUCCCAACCCCGGAUAAAAGUGGAGGGGGCCG` is 0.0946

Lab note: measured self-cleavage of `AACACUGCCAAUGCCCGUCCCAAGCCCGGAUAAAAGUGGAUGGGGCGG` was 0.103

# self-cleavage of `AAGACUGCCAAUGCCGGUCCCAAGCCCGGAUGAAAGUGGAGGGGGCGG` = 0.434
